Data origin: PubChem BioAssay AID2060889

Test system: LG0567-F671-PDC complex spheroids viability;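 further: spheroids exposed to compound for seven days before readout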
Assay: Anticancer human tumor LG0567-F671-PDC patient-derived lung adenocarcinoma cell line growth inhibition [RAS]; active means viability on the fitted dose curve at most 10% of control; inactive means the rest
Conditions: second compound 0.1 µM; first compound 3.16 µM
// classify into active, inactive

q: # outcome recorded in this test, key = CC1(O)CCCC1n1c(=O)c(C(F)F)cc2cnc(NC3CCN(S(C)(=O)=O)CC3)nc21 (centres undefined) + C#Cc1c(F)ccc2cc(O)cc(-c3ncc4c(N5CC6CCC(C5)N6)nc(OCC56CCCN5CC(F)C6)nc4c3F)c12
a: inactive

q: # outcome recorded in this test, key = CC(Nc1ccc2c(c1)OCCn1cc(N3C(=O)OCC3C(F)F)nc1-2)C(N)=O (centres undefined) + C#Cc1c(F)ccc2cc(O)cc(-c3ncc4c(N5CC6CCC(C5)N6)nc(OCC56CCCN5CC(F)C6)nc4c3F)c12
a: inactive

q: # outcome recorded in this test, key = CC(C)NCC(C(=O)N1CCN(c2ncnc3c2C(C)CC3O)CC1)c1ccc(Cl)cc1 (centres undefined) + C#Cc1c(F)ccc2cc(O)cc(-c3ncc4c(N5CC6CCC(C5)N6)nc(OCC56CCCN5CC(F)C6)nc4c3F)c12
a: inactive

q: # outcome recorded in this test, key = CCC(CC)c1cc(NC2CCC(N)C2)n2nccc2n1 (centres undefined) + C#Cc1c(F)ccc2cc(O)cc(-c3ncc4c(N5CC6CCC(C5)N6)nc(OCC56CCCN5CC(F)C6)nc4c3F)c12
a: active

q: # outcome recorded in this test, key = NC1c2ccccc2OC12CCN(c1cnc3c(N4CCCc5ncccc54)n[nH]c3n1)CC2 (centres undefined) + C#Cc1c(F)ccc2cc(O)cc(-c3ncc4c(N5CC6CCC(C5)N6)nc(OCC56CCCN5CC(F)C6)nc4c3F)c12
a: active

q: # outcome recorded in this test, key = CCC(CC)c1cc(NC2CCC(N)C2)n2nccc2n1 (centres undefined) + C=CC(=O)N1CCN(c2nc(OCC3CCCN3C)nc3c(F)c(-c4nc(N)cc(C)c4C(F)(F)F)c(Cl)cc23)C(C)C1
a: active

q: # outcome recorded in this test, key = NC1c2ccccc2OC12CCN(c1cnc3c(N4CCCc5ncccc54)n[nH]c3n1)CC2 (centres undefined) + C=CC(=O)N1CCN(c2nc(OCC3CCCN3C)nc3c(F)c(-c4nc(N)cc(C)c4C(F)(F)F)c(Cl)cc23)C(C)C1
a: active

q: # outcome recorded in this test, key = CC(Nc1ccc2c(c1)OCCn1cc(N3C(=O)OCC3C(F)F)nc1-2)C(N)=O (centres undefined) + C=CC(=O)N1CCN(c2nc(OCC3CCCN3C)nc3c(F)c(-c4nc(N)cc(C)c4C(F)(F)F)c(Cl)cc23)C(C)C1
a: active

q: # outcome recorded in this test, key = C[C@@H](NC(=O)c1ncnc(N)c1Cl)c1ncc(C(=O)Nc2cc(C(F)(F)F)c(Cl)cn2)s1 + C#Cc1c(F)ccc2cc(O)cc(-c3ncc4c(N5CC6CCC(C5)N6)nc(OCC56CCCN5CC(F)C6)nc4c3F)c12
a: inactive

q: # outcome recorded in this test, key = CC1(O)CCCC1n1c(=O)c(C(F)F)cc2cnc(NC3CCN(S(C)(=O)=O)CC3)nc21 (centres undefined) + C=CC(=O)N1CCN(c2nc(OCC3CCCN3C)nc3c(F)c(-c4nc(N)cc(C)c4C(F)(F)F)c(Cl)cc23)C(C)C1
a: inactive

q: # outcome recorded in this test, key = Cc1nc(N2CCC3(CC2)COC(C)C3N)c(CO)nc1Sc1ccnc(N)c1Cl (centres undefined) + C#Cc1c(F)ccc2cc(O)cc(-c3ncc4c(N5CC6CCC(C5)N6)nc(OCC56CCCN5CC(F)C6)nc4c3F)c12
a: inactive

q: # outcome recorded in this test, key = Cc1nc(N2CCC3(CC2)COC(C)C3N)c(CO)nc1Sc1ccnc(N)c1Cl (centres undefined) + C=CC(=O)N1CCN(c2nc(OCC3CCCN3C)nc3c(F)c(-c4nc(N)cc(C)c4C(F)(F)F)c(Cl)cc23)C(C)C1
a: active

q: # outcome recorded in this test, key = CC(=O)OC12COC1CC(O)C1(C)C(=O)C(O)C3=C(C)C(OC(=O)C(O)C(NC(=O)OC(C)(C)C)c4ccccc4)CC(O)(C(OC(=O)c4ccccc4)C21)C3(C)C (centres undefined) + C#Cc1c(F)ccc2cc(O)cc(-c3ncc4c(N5CC6CCC(C5)N6)nc(OCC56CCCN5CC(F)C6)nc4c3F)c12
a: inactive

q: # outcome recorded in this test, key = C[C@@H](NC(=O)c1ncnc(N)c1Cl)c1ncc(C(=O)Nc2cc(C(F)(F)F)c(Cl)cn2)s1 + C=CC(=O)N1CCN(c2nc(OCC3CCCN3C)nc3c(F)c(-c4nc(N)cc(C)c4C(F)(F)F)c(Cl)cc23)C(C)C1
a: inactive
